- PROCEDURE TEXT: Hepatic microsomal stability, rat
- RUN CONDITIONS: […], 60-min incubation
Mark each entry YES if its % remaining after a 60-min incubation, Rat sits below 60%, and NO for all others.

{"COMPOUND": "Cc1cccc(Nc2nc(-c3ccc(-c4ccccc4)cc3)cs2)n1", "CLASS LABEL": "NO"}

Read the next record carefully.
Confirm or reject: % remaining after a 60-min incubation, Rat of `Cc1ccnc(Nc2nc(-c3ccncc3)cs2)c1` lies strictly below 60% YES

====

- PROCEDURE TEXT: Hepatic microsomal stability, mouse
- RUN CONDITIONS: mouse liver microsomes; predicted hepatic extraction
REPORTED PROPERTY: Hepatic Extraction Ratio Mouse
// no unit, no text: just the number

{"COMPOUND": "CCOc1ccccc1C1C(C#N)=C(N)Oc2cc(N(C)C)ccc21 (stereo not shown) [IND8541]", "Hepatic Extraction Ratio Mouse": 0.97}
{"COMPOUND": "Cc1c(C(=O)OC(C)C)[nH]c2c1C(=O)CC(c1cccs1)C2 (stereo not shown) [IND116088]", "Hepatic Extraction Ratio Mouse": 0.90}
{"COMPOUND": "COc1ccc(S(=O)(=O)N2CCOc3ccccc32)cc1 [IND116071]", "Hepatic Extraction Ratio Mouse": 0.98}
{"COMPOUND": "O=C(Cc1ccc(-c2ccccc2)cc1)NCc1ccccc1 [IND116065]", "Hepatic Extraction Ratio Mouse": 0.83}
{"COMPOUND": "COc1cccc(N2CCN(C(=O)c3cc(C)ccc3OC)CC2)c1 [IND126339]", "Hepatic Extraction Ratio Mouse": 0.95}
{"COMPOUND": "CCOc1ccc(Nc2nc(-c3c(C)nc4sccn34)cs2)cc1 [IND126328]", "Hepatic Extraction Ratio Mouse": 0.86}

Now examine the next entry.
Need Hepatic Extraction Ratio Mouse, item NC(=O)c1ccccc1NC(=O)c1cccnc1N1CCCCC1 [IND87406] 0.91

====

Each entry below lists one item and its recorded log10(concentration at 3 days) value.
- PROCEDURE TEXT: Multidose (three-day) pharmacokinetics in liquid diet in FVB mice
- RUN CONDITIONS: FVB, mouse, in vivo, 210 mg/kg, Brain Concentration (Css), three-day dosing in liquid diet, brain
Friendly reminder: values = log10 of concentration at 3 days, unit nM.

Example results:
{"CPD SMILES": "COc1ccc(-c2csc(Nc3ccc4ccccc4n3)n2)cc1OC", "OBSERVED MEASUREMENT": 2.36}
{"CPD SMILES": "Cc1ccc(Nc2nc(-c3cc(-c4ccccc4)no3)cs2)nc1", "OBSERVED MEASUREMENT": 4.10}

Field request: log10(concentration at 3 days) | item: `Cc1ccnc(Nc2nc(-c3ccncc3)cs2)c1` 3.88

So what's the measured log10(concentration at 3 days) for this one? `Cc1cccc(Nc2nc(-c3cc4ccccc4o3)cs2)n1` 3.51

I'd like to know its log10(concentration at 3 days). The compound in question is `Cc1cccc(Nc2nc(-c3ccc(-c4ccccc4)cc3)cs2)n1` 4.57

May I ask what log10(concentration at 3 days) has been recorded for `c1ccc2cc(Nc3nc(-c4cc5ccccc5o4)cs3)ncc2c1` ? 2.45

Recorded log10(concentration at 3 days) for `COc1ccc(-c2csc(Nc3cc4ccccc4cn3)n2)cc1OC` , please? 2.51

Which value of log10(concentration at 3 days) has been reported for `c1ccc2cc(Nc3nc(-c4ccncc4)cs3)ncc2c1` in the records? 2.00

====

- RUN CONDITIONS: fasted-state simulated intestinal fluid
REPORTED PROPERTY: solubility in FaSSIF (in words)

Example entries and their recorded answers appear below.
{"MOLECULE": "Cc1cccc(Nc2nc(-c3cc4ccccc4o3)cs2)n1 [IND22]", "solubility in FaSSIF (in words)": "higher solubility"}
{"MOLECULE": "Cc1ccnc(Nc2nc(-c3ccc(-c4ccccn4)s3)cs2)c1 [IND81]", "solubility in FaSSIF (in words)": "lower solubility"}
{"MOLECULE": "COc1ccc(-c2csc(Nc3ccc4ccccc4n3)n2)cc1OC [IND47]", "solubility in FaSSIF (in words)": "lower solubility"}
{"MOLECULE": "COc1ccc(Nc2nc(-c3ccc(OC)c(OC)c3)cs2)nc1 [IND44]", "solubility in FaSSIF (in words)": "lower solubility"}

What value of solubility in FaSSIF (in words) has been recorded for this entry: Cc1ccc(Nc2nc(-c3cc(-c4ccccc4)no3)cs2)nc1 [IND33] higher solubility

Entry COc1ccc(-c2csc(Nc3cc4ccccc4cn3)n2)cc1OC [IND46] has what solubility in FaSSIF (in words)? lower solubility

For the molecule c1ccc2cc(Nc3nc(-c4ccncc4)cs3)ncc2c1 [IND85] , what solubility in FaSSIF (in words) is on record? lower solubility

====

Here, each record is paired with measured concentration at 3 days data.
- PROCEDURE TEXT: Multidose (three-day) pharmacokinetics in liquid diet in FVB mice
- RUN CONDITIONS: FVB, mouse, in vivo, 130 mg/kg, Plasma Concentration (Css), three-day dosing in liquid diet, plasma
# value in nM; strip the unit string

Example results:
{"CPD SMILES": "COc1ccc(-c2csc(Nc3ccc4ccccc4n3)n2)cc1OC", "OBSERVED MEASUREMENT": 60}
{"CPD SMILES": "Cc1ccnc(Nc2nc(-c3ccncc3)cs2)c1", "OBSERVED MEASUREMENT": 1930}
{"CPD SMILES": "COc1ccc(-c2csc(Nc3cc4ccccc4cn3)n2)cc1OC", "OBSERVED MEASUREMENT": 80}
{"CPD SMILES": "Cc1cccc(Nc2nc(-c3cc4ccccc4o3)cs2)n1", "OBSERVED MEASUREMENT": 2500}
{"CPD SMILES": "Cc1ccc(Nc2nc(-c3cc(-c4ccccc4)no3)cs2)nc1", "OBSERVED MEASUREMENT": 4740}

For the compound `Cc1cccc(Nc2nc(-c3ccc(-c4ccccc4)cc3)cs2)n1` , what concentration at 3 days is on record? 11700

Request the reported concentration at 3 days associated with `c1ccc2cc(Nc3nc(-c4cc5ccccc5o4)cs3)ncc2c1` 1740

====

- PROCEDURE TEXT: in vitro
- RUN CONDITIONS: CD-1, mouse, plasma, pH 7.4, free fraction in plasma
REPORTED PROPERTY: fraction unbound at 4 h

What measured fraction unbound at 4 h goes with `Cc1ccnc(Nc2nc(-c3ccc(-c4ccccn4)s3)cs2)c1` ? ~0.57

====

- PROCEDURE TEXT: in vitro
- RUN CONDITIONS: dog, MDCK-MDR1
Entries annotated with measured Papp A→B

{"CPD SMILES": "COc1ccc(-c2csc(Nc3ccc4ccccc4n3)n2)cc1OC", "OBSERVED MEASUREMENT": "9.2 ×10⁻⁶ cm/s"}

Query: Papp A→B; subject: `Cc1ccnc(Nc2nc(-c3ccc(-c4ccccn4)s3)cs2)c1` 16 ×10⁻⁶ cm/s

====

Microsome stability T1/2 listing for selected molecules.
- PROCEDURE TEXT: Hepatic microsomal stability, rat
- RUN CONDITIONS: […]
Report as a plain number; the unit min is understood.

{"CPD SMILES": "Cc1ccc(Nc2nc(-c3cc(-c4ccccc4)no3)cs2)nc1", "UNIT": "min", "OBSERVED MEASUREMENT": 151}
{"CPD SMILES": "COc1ccc(-c2csc(Nc3ccc4ccccc4n3)n2)cc1OC", "UNIT": "min", "OBSERVED MEASUREMENT": 69}
{"CPD SMILES": "COc1ccc(-c2csc(Nc3cc4ccccc4cn3)n2)cc1OC", "UNIT": "min", "OBSERVED MEASUREMENT": 83}
{"CPD SMILES": "Cc1ccc(Nc2nc(-c3ccccc3)cs2)nc1", "UNIT": "min", "OBSERVED MEASUREMENT": 10}

Now look at this one.
What measured Microsome stability T1/2 goes with `COc1ccc(-c2csc(Nc3ccc(C(F)(F)F)cn3)n2)cc1OC` ? 150

====

The entries below come with measured EC50 values attached.
- Tested on: PrP^Sc in dividing ScN2a-cl3 cells
- Format: cell-based, mouse
- RUN CONDITIONS: FDA-approved drugs, ScN2a-c13 assay, dividing cells; read-out: Potency (μM) ELISA (EC50)
Write it as a number; the unit µM goes unstated.

{"CPD SMILES": "COc1ccc2cc1Oc1ccc(cc1)C[C@H]1c3cc(c(OC)cc3CCN1C)Oc1c(OC)c(OC)cc3c1[C@H](C2)N(C)CC3", "EC50 / µM": 2.15}

Kindly review the next compound as well.
What does the record list as EC50 for `CCOc1ccc(/N=N/c2ccc(N)cc2N)cc1` ? 4.76

Hello, the source for this data is patent US20140329863A1, in case you need it.
